# IC50 annotations
Molecular target: human serotonin transporter (SERT) (Homo sapiens (Human))
Sequence (P31645 whole entry): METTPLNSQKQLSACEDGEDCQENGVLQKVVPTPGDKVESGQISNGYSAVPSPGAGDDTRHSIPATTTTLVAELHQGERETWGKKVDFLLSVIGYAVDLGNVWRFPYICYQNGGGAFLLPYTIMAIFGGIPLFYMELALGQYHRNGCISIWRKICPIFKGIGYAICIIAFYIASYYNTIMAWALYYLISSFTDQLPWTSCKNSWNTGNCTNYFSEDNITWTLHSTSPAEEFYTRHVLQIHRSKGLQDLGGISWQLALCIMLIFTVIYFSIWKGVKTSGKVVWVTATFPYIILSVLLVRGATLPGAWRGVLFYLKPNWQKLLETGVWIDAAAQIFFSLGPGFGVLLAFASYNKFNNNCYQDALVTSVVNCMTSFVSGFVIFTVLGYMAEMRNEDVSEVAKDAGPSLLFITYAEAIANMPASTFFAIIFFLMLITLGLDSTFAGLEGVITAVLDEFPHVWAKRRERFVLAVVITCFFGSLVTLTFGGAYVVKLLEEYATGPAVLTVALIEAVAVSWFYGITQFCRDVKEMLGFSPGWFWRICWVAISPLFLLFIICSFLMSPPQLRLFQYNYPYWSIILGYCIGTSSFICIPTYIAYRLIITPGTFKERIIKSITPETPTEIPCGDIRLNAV
Assay: Scintillation Proximity Assay (SPA) competition binding, human SERT
Conditions: recombinant hSERT-CHO membranes, [3H]citalopram
Numbers only here, please. The scale is µM.

| MOLECULE | MEASUREMENT UNIT | IC50 |
| --- | --- | --- |
| O[C@H]1CNCC[C@@]12CCN(c1nc(Oc3cccc(F)c3)cc(C(F)(F)F)n1)C2 (single isomer, unassigned) [Example 100] | µM | 6.92 |
| O[C@H]1CNCC[C@@]12CCN(c1nc(Oc3cccc(F)c3)cc(C(F)(F)F)n1)C2 (single isomer, unassigned) [Example 101] | µM | 11.2 |

# input for lookup
Provide IC50 value for the following molecule: O[C@H]1CNCC[C@@]12CCN(c1nc(Oc3cccc(F)c3)cc(C(F)(F)F)n1)C2 (single isomer, unassigned) [Example 98]
11.2

Every entry's value here was drawn from patent US9908897B2.
